Assay: First-in-human phase 1 study: plasma pharmacokinetics of Compound 1
Format: in vivo
Conditions: both sexes, human, plasma, intravenous, 7 mg/kg, human plasma, single dose, 24 hours, Cohort 2 (7 mg/kg), compartmental (2) analysis, ± SE; read-out: t1/2 beta (converted)
quantity: half-life (h)
Give bare numbers, in h.

Incoming: Identify the reported half-life for the following entry. CN[C@@H]1[C@@H](O)[C@@H](O[C@@H]2[C@@H](O)[C@H](O[C@H]3OC(CNCCO)=CC[C@H]3N)[C@@H](N)C[C@H]2NC(=O)[C@@H](O)CCN)OC[C@]1(C)O [Compound 1]
Outgoing: 3.1

====

Assay: First-in-human phase 1 study: plasma pharmacokinetics of Compound 1
Assay type: in vivo
Settings: both sexes, human, plasma, intravenous, 1 mg/kg, human plasma, single dose, 24 hours, Cohort 1 a (1 mg/kg), compartmental (2) analysis, ± SE; read-out: t1/2 alpha (converted)
quantity: half-life (min)
Answers are plain numbers, in min.

Incoming: Return reported half-life. Input molecule: "CN[C@@H]1[C@@H](O)[C@@H](O[C@@H]2[C@@H](O)[C@H](O[C@H]3OC(CNCCO)=CC[C@H]3N)[C@@H](N)C[C@H]2NC(=O)[C@@H](O)CCN)OC[C@]1(C)O"
Outgoing: 30
